Reference source: PubChem BioAssay

Tested target: Dickkopf-related protein 1 (Homo sapiens) (UniProt O94907)
Sequence (O94907 whole entry, looked up): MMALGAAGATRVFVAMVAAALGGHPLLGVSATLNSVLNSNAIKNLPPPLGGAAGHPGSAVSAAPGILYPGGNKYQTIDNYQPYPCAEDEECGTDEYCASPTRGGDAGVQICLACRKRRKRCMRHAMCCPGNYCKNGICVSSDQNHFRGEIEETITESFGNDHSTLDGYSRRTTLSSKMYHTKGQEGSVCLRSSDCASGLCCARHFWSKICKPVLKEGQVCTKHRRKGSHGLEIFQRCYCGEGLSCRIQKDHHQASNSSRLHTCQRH
Test: DKK1 binders on small-molecule microarrays, primary screen, biochemical, small-molecule microarray, 635 nm fluorescence scan (AID 1106);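 note: score merges emission near 667 nm with signal to noise over three replicate slides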
Particulars: DKK1 binding, higher = more signal
# if value of composite z-score reaches 0.9, tag class 1; if it stays below, tag class 0

CCOC(=O)CCN1C(=O)[C@H]2[C@H]3[C@H](O)[C@H](O)CC(=NOCC(C)C)[C@@H]3CC[C@H]2C1=O    class 1

Shift focus to the following entry.
Kindly determine if composite z-score recorded for COC(=O)C(C(=O)OC)C1CCCC(=O)C1 (stereo not drawn) is above or exactly 0.9.
class 1

====

Test: E. coli growth modulation, two-sided OD650, primary screen, E. coli filamentation project, strain DRC41, 24 h (AID 1093);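 note: MC1000 strain lacking acrAB efflux and sulA so SOS filamentation is blocked; test concentration not given here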
Particulars: OD650, 24 h, higher = more signal, called active from +8 up or from −8 down
Exercise: state measured z-score for each of the compounds provided.
Answers are plain numbers.

Solved entries:
CCOC(=O)[C@H](Cc1ccccc1)NC(=O)CCC1CC(OC(=O)NCc2cccc3ccccc23)CC2(CCCC(COC(=O)NCc3ccc4c(c3)OCO4)O2)O1 (stereo partly specified)    0.951
O=C1C[C@@H](O)[C@@H](O)[C@@H]2[C@@H]3C(=O)N(C4CCCCC4)C(=O)[C@@H]3CC[C@@H]12    0.536
CO[C@@H]1C=CCC(=O)N[C@@H](C)C(=O)OC[C@@H](NS(=O)(=O)c2ccc(C)cc2)[C@H](C)C=CCC(=O)OC[C@H]1C    0.0927
CC(=O)OC[C@H]1O[C@H](CC=NOCC[C@@H]2C=C[C@H](OC(C)=O)[C@@H](COC(C)=O)O2)C=C[C@@H]1OC(C)=O    0.712
COC(=O)CC=C[C@@H](C)[C@@H](C=NOC[C@@H](O)COCc1ccco1)OC    -0.255
CCOC(=O)[C@H](Cc1ccccc1)NC(=O)CCC1CC(OC(=O)NCc2cccc3ccccc23)CC2(CCCC(COC(=O)NCCc3ccccc3OC)O2)O1 (stereo partly specified)    -0.164
CCc1cc2c(nc1CC)CCN(CCC(C)=NOC[C@@H](C)[C@H](OCc1ccccc1)C(C)C)C2    -0.966
COC(=O)[C@H](C)NC(=O)CCC1CC(OC(=O)NCc2cccc3ccccc23)CC2(CCCC(COC(=O)NCCC(C)C)O2)O1 (stereo partly specified)    0.384
COC(=O)[C@H](C)NC(=O)CCC1CC(OC(=O)NCc2cccc3ccccc23)CC2(CCCC(COC(=O)NCc3cccc(C(F)(F)F)c3)O2)O1 (stereo partly specified)    -1.21
O=C1C[C@H](c2ccccc2)[C@H](c2ccc(Br)cc2)O1    0.421

Batch lookup, z-score per entry.
1. C=CC[C@@H]1C=C[C@H](ON=C(C)CCN2CCCCc3nc(C)c(C)cc32)[C@@H](CO)O1
2. Cc1ccc(C(C)C)n1C(=O)OC(C)(C)C
3. CCN1C(=O)[C@H]2[C@H]3[C@H](O)[C@H](O)CC(=NO[C@@H]4O[C@H](COC(C)=O)[C@@H](OC(C)=O)[C@H](OC(C)=O)[C@H]4OC(C)=O)[C@@H]3CC[C@H]2C1=O
4. OC[C@H]1O[C@H](C#Cc2ccccc2)C=C[C@@H]1O
5. COc1ccc(OC[C@@H]2CC3[C@@H](c4ccc(Br)cc4)[C@H](C)CC[C@H]3C(=O)O2)cc1 (stereo partly specified)

-0.0376
-0.315
1.16
0.897
-0.145

Would you mind giving z-score for every compound in the list below?
1. CC(=O)OC[C@H]1O[C@H](CC=NO[C@@H](C)c2cc(-c3c(C)cc(C)cc3C)no2)C=C[C@@H]1OC(C)=O
2. COCC#Cc1ccc([C@@H]2N[C@H](C(=O)O)CC[C@H]2C)cc1
3. COc1ccc(COC(=O)NN=C2C[C@@H](O)[C@@H](O)[C@@H]3[C@@H]4C(=O)N(C[C@@H]5CCCO5)C(=O)[C@@H]4CC[C@H]23)cc1
4. O=C1[C@H]2[C@H]3[C@H](O)[C@H](O)CC(=NOCc4ccccc4)[C@H]3CC[C@H]2C(=O)N1C1CCCCC1
5. CCOC(=O)CCN1C(=O)[C@H]2[C@H]3[C@H](O)[C@H](O)CC(=NNC(=O)OCc4ccccc4)[C@H]3CC[C@H]2C1=O

1. -0.542
2. 0.874
3. -0.5
4. 0.119
5. -0.287

Field: z-score. Fill in for each record below.
1. COc1cccc([C@H](O)Cn2cc(-c3ccc(CON=C(C)C)cc3)nn2)c1
2. CCOC(=O)[C@H](CC(C)C)NC(=O)CCC1CC(OC(=O)NCc2ccc3c(c2)OCO3)CC2(CCCC(COC(=O)NCc3ccccc3)O2)O1 (stereo partly specified)

1: 1.2; 2: 0.314

For each of the items listed, what is its z-score?
1. CCOC(=O)[C@H](CC(C)C)NC(=O)CCC1CC(OC(=O)NCCc2ccc(F)cc2)CC2(CCCC(COC(=O)NCc3cccc(C(F)(F)F)c3)O2)O1 (stereo partly specified)
2. CO[C@@H](C1CCCCC1)[C@@H](C)[C@H](OCc1cccc(Br)c1)[C@@H](C)CO
3. CC(C)CON=C1[C@H]2CCn3c(=O)n(C)c(=O)n3[C@H]2[C@H](O)[C@@H]2O[C@H]12
4. CC1(C)O[C@H]2OC([C@H](O)CON3C(=O)c4ccccc4C3=O)[C@H](O)[C@H]2O1 (stereo partly specified)
5. CON=C1c2cc(OC)ccc2O[C@H](c2cccc(OC)c2)[C@H]1O

[1.05, 0.114, 0.253, 0.742, 0.792]

Provide each entry's z-score from the list below.
1. CC(C)[C@H](NC(=O)OC(C)(C)C)[C@@H](O)CC(=O)C(C)(C)C
2. C[C@H]1CC[C@H]2C(=O)O[C@H](CO)CN2[C@@H]1c1ccc(Br)cc1
3. CCN1C(C)=C(C(=O)OC)[C@@H](c2ccccc2)N2C(=O)[C@](O)(C(=O)OC)CC(C(C)=O)=C12
4. O=C1[C@H]2[C@H]3[C@H](O)[C@H](O)CC(=NO[C@@H]4O[C@H](CO)[C@@H](O)[C@H](O)[C@H]4O)[C@@H]3CC[C@H]2C(=O)N1C[C@@H]1CCCO1

1: 0.782; 2: 1.88; 3: 0.302; 4: 0.415
